- target entity: ScPex13
- experiment description: SPOT peptide array binding signal intensity (averaged, normalized) (arbitrary units (background-subtracted, floor 0; scale differs between SH3 domains)); higher = stronger binding of the SH3 domain to the peptide
A collection of binders and their measured SPOT peptide array binding signal intensity
API doc: respond with a numeric literal and nothing else, no unit.

Some entries whose results are on file:
binder=LPMNIQPDLPPRKIM test_result=234
binder=RRLRDKYKLPIVDAD test_result=0.5
binder=SHRLWLYAAPKRPKT test_result=8.75
binder=GLRRARYKFPGQQKI test_result=8.5
binder=ANNQGPPNLPARDKS test_result=472

(Q) Can you share its SPOT peptide array binding signal intensity? I mean this binder: EEEEEHPPLPARRKS
(A) 656
